- Experimental Target: Progesterone receptor (Oryctolagus cuniculus) (UniProt P06186)
- Sequence (whole entry): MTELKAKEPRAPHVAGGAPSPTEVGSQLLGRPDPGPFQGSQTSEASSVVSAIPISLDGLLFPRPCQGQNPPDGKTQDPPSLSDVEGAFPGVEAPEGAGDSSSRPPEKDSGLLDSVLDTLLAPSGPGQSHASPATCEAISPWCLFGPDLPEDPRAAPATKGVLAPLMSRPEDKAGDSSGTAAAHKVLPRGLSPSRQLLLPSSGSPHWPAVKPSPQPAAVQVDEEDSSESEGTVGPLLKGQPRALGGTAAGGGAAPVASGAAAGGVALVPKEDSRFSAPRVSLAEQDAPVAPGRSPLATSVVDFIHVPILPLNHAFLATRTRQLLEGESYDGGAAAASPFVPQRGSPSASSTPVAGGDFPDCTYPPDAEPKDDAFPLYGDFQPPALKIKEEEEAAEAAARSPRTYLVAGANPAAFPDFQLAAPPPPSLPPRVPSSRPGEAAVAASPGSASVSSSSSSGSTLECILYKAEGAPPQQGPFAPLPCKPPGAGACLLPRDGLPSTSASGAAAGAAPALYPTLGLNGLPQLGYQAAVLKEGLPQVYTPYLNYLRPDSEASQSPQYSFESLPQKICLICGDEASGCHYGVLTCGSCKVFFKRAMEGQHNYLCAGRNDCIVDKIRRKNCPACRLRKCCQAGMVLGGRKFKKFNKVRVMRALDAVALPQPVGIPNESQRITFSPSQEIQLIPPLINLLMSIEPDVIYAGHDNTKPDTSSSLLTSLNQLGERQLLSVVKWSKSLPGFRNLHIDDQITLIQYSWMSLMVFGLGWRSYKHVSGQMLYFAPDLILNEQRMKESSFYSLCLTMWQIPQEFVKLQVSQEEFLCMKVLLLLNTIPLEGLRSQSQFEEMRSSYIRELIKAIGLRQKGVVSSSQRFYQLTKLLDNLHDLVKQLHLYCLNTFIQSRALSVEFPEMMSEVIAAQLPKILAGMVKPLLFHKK
- Method Description: Relative binding to progesterone receptor compared to progesterone
Readout Kind: Ratio

>>> df
                                   compound  readout_kind  reported_value
0  CC(=O)S[C@@H]1CC2=CC(=O)C=C[C@]2(C)[C@H]2CC[C@@]3(C)[C@@H]([C@@H]4C[C@@H]4[C@@]34CCC(=O)O4)[C@H]12 (stereo in doubt; 14)         Ratio              76
1  CC(=O)S[C@@H]1CC2=CC(=O)[C@@H]3C[C@@H]3C2(C)C2CCC3(C)C(C21)[C@@H]1C[C@@H]1[C@@]31CCC(=O)O1 (stereo partly specified)         Ratio             7.8
2  CC(=O)S[C@@H]1CC2=CC(=O)[C@@H]3C[C@@H]3C2(C)C2CCC3(C)C(C21)[C@H]1C[C@H]1[C@@]31CCC(=O)O1 (stereo partly specified)         Ratio              19
3  CC(=O)S[C@@H]1CC2=CC(=O)CCC2(C)C2CCC3(C)C(C21)[C@H]1C[C@H]1[C@@]31CCC(=O)O1 (stereo partly specified)         Ratio              18
4  CC(=O)S[C@@H]1CC2=CC(=O)C=C[C@]2(C)[C@H]2CC[C@@]3(C)[C@@H]([C@@H]4C[C@@H]4[C@@]34CCC(=O)O4)[C@H]12 (stereo in doubt)         Ratio              33
5  CC(=O)S[C@@H]1CC2=CC(=O)CCC2(C)C2CCC3(C)C(C21)[C@@H]1C[C@@H]1[C@@]31CCC(=O)O1 (stereo partly specified)         Ratio              14

---

- Experimental Target: Progesterone receptor (Oryctolagus cuniculus) (UniProt P06186)
- Method Description: Progestational activity by Clauberg test in rabbits as McPhail index after 10 mg subcutaneous dose
- Assay type: functional
Readout Kind: McPhail index

>>> print(df.to_string())
                                   molecule   readout_kind  reported_value
0  CC(=O)S[C@@H]1CC2=CC(=O)CCC2(C)C2CCC3(C)C(C21)[C@H]1C[C@H]1[C@@]31CCC(=O)O1 (some centres undefined)  McPhail index             2.6
1  CC(=O)S[C@@H]1CC2=CC(=O)[C@@H]3C[C@@H]3C2(C)C2CCC3(C)C(C21)[C@@H]1C[C@@H]1[C@@]31CCC(=O)O1 (some centres undefined)  McPhail index               1
2  CC(=O)S[C@@H]1CC2=CC(=O)C=C[C@]2(C)[C@H]2CC[C@@]3(C)[C@@H]([C@@H]4C[C@@H]4[C@@]34CCC(=O)O4)[C@H]12 (stereo in doubt)  McPhail index             1.2
3  CC(=O)S[C@@H]1CC2=CC(=O)[C@@H]3C[C@@H]3C2(C)C2CCC3(C)C(C21)[C@H]1C[C@H]1[C@@]31CCC(=O)O1 (some centres undefined)  McPhail index             2.4

---

- Experimental Target: Progesterone receptor (Oryctolagus cuniculus) (UniProt P06186)
- Method Description: Progestational activity by Clauberg test in rabbits as McPhail index after 30 mg subcutaneous dose
- Type: functional
Entries annotated with measured McPhail index
Readout Kind: McPhail index

>>> df
                                   molecule  reported_value
0  CC(=O)S[C@@H]1CC2=CC(=O)[C@@H]3C[C@@H]3C2(C)C2CCC3(C)C(C21)[C@H]1C[C@H]1[C@@]31CCC(=O)O1 (some centres undefined)               3
1  CC(=O)S[C@@H]1CC2=CC(=O)[C@@H]3C[C@@H]3C2(C)C2CCC3(C)C(C21)[C@@H]1C[C@@H]1[C@@]31CCC(=O)O1 (some centres undefined)             1.6
2  CC(=O)S[C@@H]1CC2=CC(=O)C=C[C@]2(C)[C@H]2CC[C@@]3(C)[C@@H]([C@@H]4C[C@@H]4[C@@]34CCC(=O)O4)[C@H]12 (stereo in doubt)             1.7
3  CC(=O)S[C@@H]1CC2=CC(=O)CCC2(C)C2CCC3(C)C(C21)[C@H]1C[C@H]1[C@@]31CCC(=O)O1 (some centres undefined)             3.1

---

- Experimental Target: Progesterone receptor (Oryctolagus cuniculus)
- Sequence (whole entry): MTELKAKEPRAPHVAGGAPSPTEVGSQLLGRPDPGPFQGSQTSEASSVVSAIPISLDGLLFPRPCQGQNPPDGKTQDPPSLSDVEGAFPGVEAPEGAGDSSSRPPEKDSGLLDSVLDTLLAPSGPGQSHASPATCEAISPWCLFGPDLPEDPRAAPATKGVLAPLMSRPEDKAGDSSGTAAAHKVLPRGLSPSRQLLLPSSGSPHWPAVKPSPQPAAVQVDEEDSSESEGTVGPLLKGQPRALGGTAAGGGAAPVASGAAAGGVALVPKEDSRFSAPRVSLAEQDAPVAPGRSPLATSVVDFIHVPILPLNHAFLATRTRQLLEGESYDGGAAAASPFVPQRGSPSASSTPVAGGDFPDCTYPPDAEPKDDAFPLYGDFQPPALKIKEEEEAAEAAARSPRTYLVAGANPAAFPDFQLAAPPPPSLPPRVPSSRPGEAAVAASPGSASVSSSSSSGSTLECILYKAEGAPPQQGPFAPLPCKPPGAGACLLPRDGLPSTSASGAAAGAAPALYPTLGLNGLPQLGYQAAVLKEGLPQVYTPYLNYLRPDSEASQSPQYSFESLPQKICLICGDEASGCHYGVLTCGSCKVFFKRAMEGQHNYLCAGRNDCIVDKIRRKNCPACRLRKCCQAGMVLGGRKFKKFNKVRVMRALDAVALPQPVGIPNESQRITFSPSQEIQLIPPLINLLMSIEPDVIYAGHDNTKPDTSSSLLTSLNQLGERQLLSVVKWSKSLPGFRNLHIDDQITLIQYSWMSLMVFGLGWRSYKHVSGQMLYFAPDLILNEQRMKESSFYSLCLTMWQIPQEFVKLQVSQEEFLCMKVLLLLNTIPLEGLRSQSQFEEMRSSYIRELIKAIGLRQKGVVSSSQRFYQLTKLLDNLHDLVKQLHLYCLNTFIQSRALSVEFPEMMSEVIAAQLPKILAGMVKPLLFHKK
- Method Description: Progestational activity by Clauberg test in rabbits as McPhail index after 100 mg subcutaneous dose
- Assay type: functional
Readout Kind: McPhail index

>>> df
                                   molecule  reported_value
0  CC(=O)S[C@@H]1CC2=CC(=O)C=C[C@]2(C)[C@H]2CC[C@@]3(C)[C@@H]([C@@H]4C[C@@H]4[C@@]34CCC(=O)O4)[C@H]12 (stereo in doubt)             2.6
1  CC(=O)S[C@@H]1CC2=CC(=O)[C@@H]3C[C@@H]3C2(C)C2CCC3(C)C(C21)[C@H]1C[C@H]1[C@@]31CCC(=O)O1 (some centres undefined)             3.1
2  CC(=O)S[C@@H]1CC2=CC(=O)CCC2(C)C2CCC3(C)C(C21)[C@H]1C[C@H]1[C@@]31CCC(=O)O1 (some centres undefined)             3.1
3  CC(=O)S[C@@H]1CC2=CC(=O)[C@@H]3C[C@@H]3C2(C)C2CCC3(C)C(C21)[C@@H]1C[C@@H]1[C@@]31CCC(=O)O1 (some centres undefined)             3.4
